Numbers sourced from paper PMC10969960.

- Tested on: HepG2 cancer cells
- Test Details: MTT anti-proliferative assay
- Format: cell-based
- Run Parameters: Homo sapiens, 24 h, hypoxic (0.5% O2), read-out: IC50 HepG2 Hypo
Observed Property: pIC50
As a rule, pIC50 stands for the negative log10 of the concentration, concentration in M.

NS(=O)(=O)c1ccc(NC(=S)NC(=O)c2ccc3c(c2)C(=O)c2ccccc2C3=O)cc1 [Compound 5c]
4.16
NS(=O)(=O)c1ccc(CCNC(=S)NC(=O)c2ccc3c(c2)C(=O)c2ccccc2C3=O)cc1 [Compound 5h]
4.09
NS(=O)(=O)c1ccc(NC(=O)c2ccc3c(c2)C(=O)c2ccccc2C3=O)cc1 [Compound 6c]
4.20

In plain terms, NS(=O)(=O)c1ccc(CCNC(=O)c2ccc3c(c2)C(=O)c2ccccc2C3=O)cc1 [Compound 6h] has a documented pIC50 of 4.26

###

Catalogue of molecules with associated IC50
- System Name: UniProt:P00918
Form entry: value (nM) — number only.

The molecule NS(=O)(=O)c1ccc(CCNC(=O)c2ccc3c(c2)C(=O)c2ccccc2C3=O)cc1 on UniProt:P00918: IC50 was 61.8

The molecule NS(=O)(=O)c1ccc(CCNC(=S)NC(=O)c2ccc3c(c2)C(=O)c2ccccc2C3=O)cc1 on UniProt:P00918: IC50 was 21.2

The molecule COC(=O)c1ccc(NC(=S)NC(=O)c2ccc3c(c2)C(=O)c2ccccc2C3=O)cc1 on UniProt:P00918: IC50 was 147

The molecule O=C(O)c1cccc(NC(=S)NC(=O)c2ccc3c(c2)C(=O)c2ccccc2C3=O)c1 on UniProt:P00918: IC50 was 135

The molecule NS(=O)(=O)c1cccc(NC(=O)c2ccc3c(c2)C(=O)c2ccccc2C3=O)c1 on UniProt:P00918: IC50 was 91.2

The molecule COC(=O)c1cccc(NC(=S)NC(=O)c2ccc3c(c2)C(=O)c2ccccc2C3=O)c1 on UniProt:P00918: IC50 was 238

The molecule O=C(NC(=S)Nc1ccc(S(=O)(=O)Nc2nccs2)cc1)c1ccc2c(c1)C(=O)c1ccccc1C2=O on UniProt:P00918: IC50 was 95.9

The molecule NS(=O)(=O)c1ccc(NC(=S)NC(=O)c2ccc3c(c2)C(=O)c2ccccc2C3=O)cc1 on UniProt:P00918: IC50 was 41.6

The molecule O=C(O)c1ccc(NC(=O)c2ccc3c(c2)C(=O)c2ccccc2C3=O)cc1 on UniProt:P00918: IC50 was 296

The molecule CC(=O)c1ccc(NC(=S)NC(=O)c2ccc3c(c2)C(=O)c2ccccc2C3=O)cc1 on UniProt:P00918: IC50 was 132

The molecule CC(=O)NS(=O)(=O)c1ccc(NC(=O)c2ccc3c(c2)C(=O)c2ccccc2C3=O)cc1 on UniProt:P00918: IC50 was 170

###

Catalogue of compounds with associated melting point

CNS(=O)(=O)c1ccc(NC(=S)NC(=O)c2ccc3c(c2)C(=O)c2ccccc2C3=O)cc1 [Compound 5i]
207 to 207.6 °C
O=C(O)c1cccc(NC(=O)c2ccc3c(c2)C(=O)c2ccccc2C3=O)c1 [Compound 6b]
274 to 274.6 °C
COC(=O)c1ccc(NC(=S)NC(=O)c2ccc3c(c2)C(=O)c2ccccc2C3=O)cc1 [Compound 5f]
211 to 211.4 °C
NS(=O)(=O)c1ccc(CCNC(=S)NC(=O)c2ccc3c(c2)C(=O)c2ccccc2C3=O)cc1 [Compound 5h]
323 to 323.5 °C
O=C(O)c1ccc(NC(=O)c2ccc3c(c2)C(=O)c2ccccc2C3=O)cc1 [Compound 6a]
338 to 338.5 °C
CC(=O)NS(=O)(=O)c1ccc(NC(=O)c2ccc3c(c2)C(=O)c2ccccc2C3=O)cc1 [Compound 6k]
304 to 304.3 °C
CC(=O)c1ccc(NC(=O)c2ccc3c(c2)C(=O)c2ccccc2C3=O)cc1 [Compound 6e]
266 to 266.5 °C
NS(=O)(=O)c1ccc(NC(=O)c2ccc3c(c2)C(=O)c2ccccc2C3=O)cc1 [Compound 6c]
341 to 341.3 °C
CC(=O)NS(=O)(=O)c1ccc(NC(=S)NC(=O)c2ccc3c(c2)C(=O)c2ccccc2C3=O)cc1 [Compound 5k]
192 to 192.4 °C
NS(=O)(=O)c1cccc(NC(=S)NC(=O)c2ccc3c(c2)C(=O)c2ccccc2C3=O)c1 [Compound 5d]
146.5 to 146.8 °C

In plain terms, O=C(O)c1ccc(NC(=S)NC(=O)c2ccc3c(c2)C(=O)c2ccccc2C3=O)cc1 [Compound 5a] has a documented melting point of 221 to 221.4 °C

In plain terms, COC(=O)c1cccc(NC(=S)NC(=O)c2ccc3c(c2)C(=O)c2ccccc2C3=O)c1 [Compound 5g] has a documented melting point of 187 to 187.3 °C

In plain terms, CC(=O)c1ccc(NC(=S)NC(=O)c2ccc3c(c2)C(=O)c2ccccc2C3=O)cc1 [Compound 5e] has a documented melting point of 215 to 215.9 °C

###

- System Name: hCA IX (Homo sapiens, UniProt Q16790)
Kindly apply the following: yes (1) if IC50 is less than 100 nM, no (0) in every other case.

Recorded results for 5 compounds are shown here.
CNS(=O)(=O)c1ccc(NC(=O)c2ccc3c(c2)C(=O)c2ccccc2C3=O)cc1 [Compound 6i]
no (0)
O=C(O)c1ccc(NC(=O)c2ccc3c(c2)C(=O)c2ccccc2C3=O)cc1 [Compound 6a]
no (0)
O=C(NC(=S)Nc1ccc(S(=O)(=O)Nc2ncccn2)cc1)c1ccc2c(c1)C(=O)c1ccccc1C2=O [Compound 5j]
yes (1)
NS(=O)(=O)c1ccc(CCNC(=S)NC(=O)c2ccc3c(c2)C(=O)c2ccccc2C3=O)cc1 [Compound 5h]
yes (1)
CC(=O)c1ccc(NC(=O)c2ccc3c(c2)C(=O)c2ccccc2C3=O)cc1 [Compound 6e]
no (0)

Field: below-cutoff. Rule: recorded IC50 strictly less than 100 nM. Subject: CC(=O)NS(=O)(=O)c1ccc(NC(=O)c2ccc3c(c2)C(=O)c2ccccc2C3=O)cc1 [Compound 6k]
no (0)

###

# IC50 measurements, system: hCA IX (Homo sapiens)
Form entry: value (µM) — number only.

O=C(NC(=S)Nc1ccc(S(=O)(=O)Nc2nccs2)cc1)c1ccc2c(c1)C(=O)c1ccccc1C2=O
0.071
O=C(O)c1cccc(NC(=O)c2ccc3c(c2)C(=O)c2ccccc2C3=O)c1
0.166
O=C(O)c1cccc(NC(=S)NC(=O)c2ccc3c(c2)C(=O)c2ccccc2C3=O)c1
0.254

The compound CC(=O)NS(=O)(=O)c1ccc(NC(=S)NC(=O)c2ccc3c(c2)C(=O)c2ccccc2C3=O)cc1 on hCA IX (Homo sapiens): IC50 was 0.227

###

Catalogue of molecules with associated melting point

Recorded results for 3 molecules are shown here.
O=C(NC(=S)Nc1ccc(S(=O)(=O)Nc2ncccn2)cc1)c1ccc2c(c1)C(=O)c1ccccc1C2=O
237 to 237.2 °C
NS(=O)(=O)c1cccc(NC(=O)c2ccc3c(c2)C(=O)c2ccccc2C3=O)c1
283 to 283.2 °C
N=C(N)NS(=O)(=O)c1ccc(NC(=S)NC(=O)c2ccc3c(c2)C(=O)c2ccccc2C3=O)cc1
206 to 206.5 °C

Attention now shifts to the item below.
In plain terms, CNS(=O)(=O)c1ccc(NC(=O)c2ccc3c(c2)C(=O)c2ccccc2C3=O)cc1 has a documented melting point of 273 to 273.8 °C
